# Tested on: human lung cancer cell line (A549)
# experimentalProtocol: MTT assay, tumor cell proliferation inhibition, A549
# Type: cell-based
# measurementSetup: A549, MTT, 72 h; read-out: Tumor inhibition rate (IC50)
property: pIC50
# pIC50 = -log10(concentration in molar units)

| cpdSmiles | measuredTarget | pIC50 |
| --- | --- | --- |
| N#Cc1ccc(COc2ccc(Nc3ncnc4cc5c(cc34)OCCOCCOCCO5)cc2)cc1 | human lung cancer cell line (A549) | 4.09 |
| Fc1ccc(COc2ccccc2Nc2ncnc3cc4c(cc23)OCCOCCO4)cc1Cl | human lung cancer cell line (A549) | 5.03 |
| c1ccc(COc2cccc(Nc3ncnc4cc5c(cc34)OCCOCCOCCOCCO5)c2)cc1 | human lung cancer cell line (A549) | 4.36 |
| FC(F)(F)c1ccc(COc2ccccc2Nc2ncnc3cc4c(cc23)OCCOCCOCCOCCO4)cc1 | human lung cancer cell line (A549) | 4.51 |
| Fc1ccc(COc2cccc(Nc3ncnc4cc5c(cc34)OCCOCCO5)c2)cc1 | human lung cancer cell line (A549) | 5.11 |

Here's the next entry for you.
Query: I have this compound here, FC(F)(F)c1ccc(COc2cccc(Nc3ncnc4cc5c(cc34)OCCOCCOCCOCCO5)c2)cc1 , and I need its recorded pIC50.
Response: 5.07

====

# System: human hepatoma cell line (HepG2)
# experimentalProtocol: MTT assay, tumor cell proliferation inhibition, HepG2
# Type: cell-based
# measurementSetup: 72 h, read-out: Tumor inhibition rate (IC50)
// IC50 lookup, one value per entry
Numbers only here, please. The scale is µM.

| cpdSmiles | uom | numericReadout |
| --- | --- | --- |
| c1ccc(COc2cccc(Nc3ncnc4cc5c(cc34)OCCOCCOCCOCCO5)c2)cc1 | µM | 55.5 |
| c1ccc(COc2ccccc2Nc2ncnc3cc4c(cc23)OCCOCCOCCOCCO4)cc1 | µM | 29.2 |
| Fc1ccc(COc2ccc(Nc3ncnc4cc5c(cc34)OCCOCCOCCOCCO5)cc2)cc1 | µM | 55.5 |

Query: I have this compound here, Fc1ccc(COc2cccc(Nc3ncnc4cc5c(cc34)OCCOCCOCCOCCO5)c2)cc1 , and I need its recorded IC50.
Response: 19

Query: I have this compound here, c1ccc(COc2ccc(Nc3ncnc4cc5c(cc34)OCCOCCOCCOCCO5)cc2)cc1 , and I need its recorded IC50.
Response: 11.9

Query: I have this compound here, O=[N+]([O-])c1ccc(COc2ccccc2Nc2ncnc3cc4c(cc23)OCCOCCOCCOCCO4)cc1 , and I need its recorded IC50.
Response: 48.1

Query: I have this compound here, O=[N+]([O-])c1ccc(COc2ccccc2Nc2ncnc3cc4c(cc23)OCCOCCOCCO4)cc1 , and I need its recorded IC50.
Response: 60.8

Query: I have this compound here, Fc1ccc(COc2ccc(Nc3ncnc4cc5c(cc34)OCCOCCO5)cc2)cc1Cl , and I need its recorded IC50.
Response: 76.5

Query: I have this compound here, Fc1ccc(COc2cccc(Nc3ncnc4cc5c(cc34)OCCOCCO5)c2)cc1Cl , and I need its recorded IC50.
Response: 43.6

Query: I have this compound here, FC(F)(F)c1ccc(COc2ccccc2Nc2ncnc3cc4c(cc23)OCCOCCO4)cc1 , and I need its recorded IC50.
Response: 87.4

Query: I have this compound here, O=[N+]([O-])c1ccc(COc2ccc(Nc3ncnc4cc5c(cc34)OCCOCCOCCO5)cc2)cc1 , and I need its recorded IC50.
Response: 19.4

Query: I have this compound here, FC(F)(F)c1ccc(COc2cccc(Nc3ncnc4cc5c(cc34)OCCOCCOCCOCCO5)c2)cc1 , and I need its recorded IC50.
Response: 5.7

Query: I have this compound here, N#Cc1ccc(COc2ccc(Nc3ncnc4cc5c(cc34)OCCOCCOCCO5)cc2)cc1 , and I need its recorded IC50.
Response: 67.4

Query: I have this compound here, c1ccc(OCc2ccncc2)c(Nc2ncnc3cc4c(cc23)OCCOCCO4)c1 , and I need its recorded IC50.
Response: 31.3

Query: I have this compound here, O=[N+]([O-])c1ccc(COc2cccc(Nc3ncnc4cc5c(cc34)OCCOCCO5)c2)cc1 , and I need its recorded IC50.
Response: 65.3

====

# System: human breast cancer cell line (MCF-7)
# experimentalProtocol: MTT assay, tumor cell proliferation inhibition, MCF-7
# Type: cell-based
# measurementSetup: MCF-7, MTT, 72 h; read-out: Tumor inhibition rate (IC50)
pIC50: −log10 of the molar value.
property: pIC50

| cpdSmiles | pIC50 |
| --- | --- |
| Fc1ccc(COc2cccc(Nc3ncnc4cc5c(cc34)OCCOCCO5)c2)cc1Cl | < 4.00 |

Query: I have this compound here, FC(F)(F)c1ccc(COc2cccc(Nc3ncnc4cc5c(cc34)OCCOCCOCCOCCO5)c2)cc1 , and I need its recorded pIC50.
Response: 5.07

Query: I have this compound here, c1ccc(COc2cccc(Nc3ncnc4cc5c(cc34)OCCOCCOCCOCCO5)c2)cc1 , and I need its recorded pIC50.
Response: < 4.00

Query: I have this compound here, O=[N+]([O-])c1ccc(COc2ccc(Nc3ncnc4cc5c(cc34)OCCOCCOCCO5)cc2)cc1 , and I need its recorded pIC50.
Response: 4.18

Query: I have this compound here, FC(F)(F)c1ccc(COc2cccc(Nc3ncnc4cc5c(cc34)OCCOCCO5)c2)cc1 , and I need its recorded pIC50.
Response: < 4.00

Query: I have this compound here, O=[N+]([O-])c1ccc(COc2cccc(Nc3ncnc4cc5c(cc34)OCCOCCOCCO5)c2)cc1 , and I need its recorded pIC50.
Response: < 4.00

Query: I have this compound here, Fc1ccc(COc2ccccc2Nc2ncnc3cc4c(cc23)OCCOCCO4)cc1 , and I need its recorded pIC50.
Response: < 4.00

Query: I have this compound here, Fc1ccc(COc2cccc(Nc3ncnc4cc5c(cc34)OCCOCCOCCOCCO5)c2)cc1 , and I need its recorded pIC50.
Response: < 4.00

Query: I have this compound here, c1ccc(OCc2ccncc2)c(Nc2ncnc3cc4c(cc23)OCCOCCO4)c1 , and I need its recorded pIC50.
Response: < 4.00

Query: I have this compound here, Fc1ccc(COc2ccc(Nc3ncnc4cc5c(cc34)OCCOCCOCCOCCO5)cc2)cc1 , and I need its recorded pIC50.
Response: < 4.00

Query: I have this compound here, FC(F)(F)c1ccc(COc2ccc(Nc3ncnc4cc5c(cc34)OCCOCCO5)cc2)cc1 , and I need its recorded pIC50.
Response: < 4.00

Query: I have this compound here, FC(F)(F)c1ccc(COc2ccccc2Nc2ncnc3cc4c(cc23)OCCOCCOCCOCCO4)cc1 , and I need its recorded pIC50.
Response: 4.55

Query: I have this compound here, N#Cc1ccc(COc2ccc(Nc3ncnc4cc5c(cc34)OCCOCCOCCO5)cc2)cc1 , and I need its recorded pIC50.
Response: < 4.00

Query: I have this compound here, FC(F)(F)c1ccc(COc2ccccc2Nc2ncnc3cc4c(cc23)OCCOCCO4)cc1 , and I need its recorded pIC50.
Response: < 4.00

Query: I have this compound here, O=[N+]([O-])c1ccc(COc2ccc(Nc3ncnc4cc5c(cc34)OCCOCCOCCOCCO5)cc2)cc1 , and I need its recorded pIC50.
Response: < 4.00

Query: I have this compound here, Fc1ccc(COc2cccc(Nc3ncnc4cc5c(cc34)OCCOCCO5)c2)cc1 , and I need its recorded pIC50.
Response: 4.11

Query: I have this compound here, FC(F)(F)c1ccc(COc2ccc(Nc3ncnc4cc5c(cc34)OCCOCCOCCO5)cc2)cc1 , and I need its recorded pIC50.
Response: < 4.00

Query: I have this compound here, c1ccc(COc2cccc(Nc3ncnc4cc5c(cc34)OCCOCCOCCO5)c2)cc1 , and I need its recorded pIC50.
Response: < 4.00

Query: I have this compound here, c1ccc(COc2ccc(Nc3ncnc4cc5c(cc34)OCCOCCOCCOCCO5)cc2)cc1 , and I need its recorded pIC50.
Response: 4.92

Query: I have this compound here, O=[N+]([O-])c1ccc(COc2ccccc2Nc2ncnc3cc4c(cc23)OCCOCCOCCOCCO4)cc1 , and I need its recorded pIC50.
Response: < 4.00

Query: I have this compound here, Fc1ccc(COc2ccc(Nc3ncnc4cc5c(cc34)OCCOCCOCCO5)cc2)cc1 , and I need its recorded pIC50.
Response: 5.08

====

# Test system: human prostate cancer cell line (DU145)
# experimentalProtocol: MTT assay, tumor cell proliferation inhibition, DU145
# Format: cell-based
# measurementSetup: Homo sapiens, DU-145; DU145, MTT, 72 h; read-out: Tumor inhibition rate (IC50)
// log10(IC50) lookup, one value per entry
Log10 applied to IC50; unit prior to transform: µM.

Query: I have this compound here, O=[N+]([O-])c1ccc(COc2ccccc2Nc2ncnc3cc4c(cc23)OCCOCCO4)cc1 [Compound 1] , and I need its recorded log10(IC50).
Response: 1.93

Query: I have this compound here, O=[N+]([O-])c1ccc(COc2cccc(Nc3ncnc4cc5c(cc34)OCCOCCOCCOCCO5)c2)cc1 [Compound 31] , and I need its recorded log10(IC50).
Response: 1.14

Query: I have this compound here, N#Cc1cc(Nc2ncnc3cc4c(cc23)OCCOCCO4)ccc1OCc1cccc(F)c1 [Compound 36] , and I need its recorded log10(IC50).
Response: -0.51

Query: I have this compound here, FC(F)(F)c1ccc(COc2cccc(Nc3ncnc4cc5c(cc34)OCCOCCOCCO5)c2)cc1 [Compound 23] , and I need its recorded log10(IC50).
Response: 0.44

Query: I have this compound here, FC(F)(F)c1ccc(COc2ccc(Nc3ncnc4cc5c(cc34)OCCOCCOCCOCCO5)cc2)cc1 [Compound 35] , and I need its recorded log10(IC50).
Response: 0.94
